Recorded values, source paper PMC12668310.

# TARGET_OR_SYSTEM: OTUD1 (Homo sapiens)
# Sequence (Q5VV17 287-481): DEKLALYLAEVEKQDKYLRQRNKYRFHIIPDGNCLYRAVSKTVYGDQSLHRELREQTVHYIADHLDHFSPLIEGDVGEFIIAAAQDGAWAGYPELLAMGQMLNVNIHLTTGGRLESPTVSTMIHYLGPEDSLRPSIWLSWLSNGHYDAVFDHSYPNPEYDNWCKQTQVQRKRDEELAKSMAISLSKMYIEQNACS
# PROTOCOL_SUMMARY: High-throughput screening, Ub-RhoMP, single dose 1.25 µM
# Assay type: biochemical
# ASSAY_SETUP: crude in-plate synthesized compound, 1.25 µM assuming full conversion
OBSERVABLE: %inhibition OTUD1 (%)

N#CN1CC[C@@H](NC(=O)C(Cc2c[nH]cn2)NS(=O)(=O)c2ccc(Cl)cc2)C1 (some centres unmarked) ... -3.9

A = N#CN1CC[C@@H](NC(=O)c2ncoc2-c2cccs2)C1
B = N#CN1CC[C@@H](NC(=O)CCN(Cc2ccccc2)S(=O)(=O)c2c(Cl)cccc2Cl)C1
Parameter metric = %inhibition OTUD1. Return the lower-valued option from A and B . Give the label of your selection.
A
(A: -11.1%, B: 1.5%)

A = N#CN1CC[C@@H](NC(=O)Cc2csc(-c3cnccn3)n2)C1
B = N#CN1CC[C@@H](NC(=O)c2nc(N3CCCC3)ncc2Cl)C1
// compare measured %inhibition OTUD1, left A , right B , return larger Give the label of your selection.
B
